# Test system: DERL-7 (IL-2 2.5 ng/mL)
# test: relative IC50 (inflection point of fitted viability curve, relative to fitted max inhibition); higher = less sensitive
# condition summary: 72 h
property label: relative IC50 (nM)

> print(dat)
                                   compound    target.or.test.system  recorded.measurement
1  N#CC(c1ccnc(OCc2ccc(CN3CCOCC3)cc2)n1)c1nc2ccccc2s1 (configuration not stated) [Bentamapimod]  DERL-7 (IL-2 2.5 ng/mL)                  1440
2  Cn1cc(C2=Nc3cc(NC(=O)C(N)C4CCCCC4)cc4c3C2=CNNC4=O)cn1 (configuration not stated)  DERL-7 (IL-2 2.5 ng/mL)                  1000
3  C=CC(=O)Nc1cc2c(Nc3ccc(F)c(Cl)c3)ncnc2cc1OCCCN1CCOCC1 [Canertinib]  DERL-7 (IL-2 2.5 ng/mL)                  1080
4  CC(=O)NCC(=O)N1[C@@H]2CC[C@H]1c1ccc(Nc3ncc(C(F)(F)F)c(NC4CCC4)n3)cc12  DERL-7 (IL-2 2.5 ng/mL)                  54.3
5  O=c1[nH]c(=O)n([C@H]2C[C@H](O)[C@@H](CO)O2)cc1F [Floxuridine]  DERL-7 (IL-2 2.5 ng/mL)                    31
6  CCS(=O)(=O)N1CC(CC#N)(n2cc(-c3ncnc4[nH]ccc34)cn2)C1 [Baricitinib]  DERL-7 (IL-2 2.5 ng/mL)                  51.9
7  CN1CCN(c2cc(C(=O)Nc3ccc4c(c3)-c3c(c(C(N)=O)nn3-c3ccc(F)cc3)CC4)c(Cl)cn2)CC1 [PHA 408]  DERL-7 (IL-2 2.5 ng/mL)                  1350

====

# System: KAI3 (IL-2 2.5 ng/mL)
# test: percent inhibition of viability; higher = more inhibition
# condition summary: 72 h; 1 nM
Below, each entry is listed with its recorded percent inhibition of viability.
property label: percent inhibition of viability (%)

> print(dat)
                                   molecule  recorded.measurement
1  COCC1(CO)C(=O)C2CCN1CC2 (stereo not drawn) [APR-246] (max concentration tested 10000 nM)                 -1.81
2  O=C(O)c1ccc(Nc2ncc3c(n2)-c2ccc(Cl)cc2C(c2c(F)cccc2F)=NC3)cc1 [MLN-8054] (max concentration tested 10000 nM)                   5.5
3  CCOc1cc2ncc(C#N)c(Nc3ccc(OCc4ccccn4)c(Cl)c3)c2cc1NC(=O)/C=C/CN(C)C [Neratinib] (max concentration tested 1000 nM)                 -5.47
4  CN1CC[C@H](c2c(O)cc(O)c3c(=O)cc(-c4ccccc4Cl)oc23)[C@H](O)C1 [Alvocidib] (max concentration tested 10000 nM)                 -3.44
5  O=c1[nH]c(=O)n([C@H]2C[C@H](O)[C@@H](CO)O2)cc1F [Floxuridine] (max concentration tested 10000 nM)                 -6.31
6  O=NN(CCCl)C(=O)NCCCl [Carmustine] (max concentration tested 10000 nM)                  12.9
7  COc1cc(Nc2ncc(F)c(Nc3ccc4c(n3)NC(=O)C(C)(C)O4)n2)cc(OC)c1OC [Tamatinib] (max concentration tested 10000 nM)                  4.14
8  CCN1CCN(c2ccc(Nc3cc(N(C)C(=O)Nc4c(Cl)c(OC)cc(OC)c4Cl)ncn3)cc2)CC1 [NVP-BGJ398] (max concentration tested 1000 nM)                 -7.26

====

Parameter drug sensitivity score: see the listing below.
# Test system: normal primary NK cells, pool 1 (3 donors), resting (IL-2 0 ng/mL)
# test: drug sensitivity score (DSS) (DSS units); higher = more sensitive; extreme values may be limits of the assay
# condition summary: 72 h
property label: drug sensitivity score

> print(dat)
                                   compound          property.label  recorded.measurement
1  OC[C@H]1O[C@@H](n2cnc3c2N=CNC[C@H]3O)C[C@@H]1O [Pentostatin] (max concentration tested 10000 nM)  drug sensitivity score                     0
2  O=C(/C=C/c1cccnc1)NCCCCC1CCN(C(=O)c2ccccc2)CC1 [Daporinad] (max concentration tested 1000 nM)  drug sensitivity score                  40.4
3  CC[C@@H]1C(=O)OC[C@@H]1Cc1cncn1C [Pilocarpine] (max concentration tested 40000 nM)  drug sensitivity score                     0

====

# System: KAI3 (IL-2 2.5 ng/mL)
# test: percent inhibition of viability; higher = more inhibition
# condition summary: 72 h; 1 nM
property label: percent inhibition of viability (%)

> print(dat)
                                   compound                   property.label  units.text  recorded.measurement
1  COc1cc2c(cc1O)CC[C@@H]1[C@@H]2CC[C@]2(C)[C@@H](O)CC[C@@H]12 [2-methoxyestradiol] (max concentration tested 10000 nM)  percent inhibition of viability           %                  -6.2
2  COc1cccc2c1c(O)c(C(=O)N(C)c1ccc(C(F)(F)F)cc1)c(=O)n2C [Tasquinimod] (max concentration tested 10000 nM)  percent inhibition of viability           %                 -4.26
3  CC(=O)NCC(=O)N1[C@@H]2CC[C@H]1c1ccc(Nc3ncc(C(F)(F)F)c(NC4CCC4)n3)cc12 (max concentration tested 10000 nM)  percent inhibition of viability           %                     2

====

# Tested on: YT (IL-2 2.5 ng/mL)
# test: drug sensitivity score (DSS) (DSS units); higher = more sensitive; extreme values may be limits of the assay
# condition summary: 72 h
Known drug sensitivity score of a selection of compounds

compound	target or test system	drug sensitivity score
O=C(O)c1ccc(Nc2ncc3c(n2)-c2ccc(Cl)cc2C(c2c(F)cccc2F)=NC3)cc1 [MLN-8054] (max concentration tested 10000 nM)	YT (IL-2 2.5 ng/mL)	11.9
O=C(Nc1cccc(Cl)c1)Nc1ncc(CCNc2ncnc3ccsc23)s1 [SNS-314] (max concentration tested 1000 nM)	YT (IL-2 2.5 ng/mL)	3.89
Cc1cnc(NC(=O)Nc2cc(Br)c(C)cc2OC[C@@H]2CNCCO2)cn1 [Rabusertib] (max concentration tested 1000 nM)	YT (IL-2 2.5 ng/mL)	0
CC[C@]1(O)C[C@@H]2CN(CCc3c([nH]c4ccccc34)[C@@](C(=O)OC)(c3cc4c(cc3OC)N(C)[C@H]3[C@@](O)(C(=O)OC)[C@H](OC(C)=O)[C@]5(CC)C=CCN6CC[C@]43[C@@H]65)C2)C1 [Vinblastine] (max concentration tested 1000 nM)	YT (IL-2 2.5 ng/mL)	28.4
O=C(c1ccc(F)c(F)c1Nc1ccc(I)cc1F)N1CC(O)([C@@H]2CCCCN2)C1 [Cobimetinib] (max concentration tested 1000 nM)	YT (IL-2 2.5 ng/mL)	0.26

====

# System: KHYG-1 (IL-2 2.5 ng/mL)
# test: percent inhibition of viability; higher = more inhibition
# condition summary: 72 h; 1 nM
Property: percent inhibition of viability; scope: individual molecules
property label: percent inhibition of viability (%)

> print(dat)
                                   molecule    target.or.test.system                   property.label  recorded.measurement
1  COc1cccc2c1c(O)c(C(=O)N(C)c1ccc(C(F)(F)F)cc1)c(=O)n2C [Tasquinimod] (max concentration tested 10000 nM)  KHYG-1 (IL-2 2.5 ng/mL)  percent inhibition of viability                 -2.03
2  COc1cc2c(cc1O)CC[C@@H]1[C@@H]2CC[C@]2(C)[C@@H](O)CC[C@@H]12 [2-methoxyestradiol] (max concentration tested 10000 nM)  KHYG-1 (IL-2 2.5 ng/mL)  percent inhibition of viability                 -6.84
3  Cc1[nH]c2ccccc2c1CCNCc1ccc(/C=C/C(=O)NO)cc1 [Panobinostat] (max concentration tested 1000 nM)  KHYG-1 (IL-2 2.5 ng/mL)  percent inhibition of viability                 -8.38
4  C#Cc1cccc(Nc2ncnc3cc4c(cc23)OCCOCCOCCO4)c1 [Icotinib] (max concentration tested 10000 nM)  KHYG-1 (IL-2 2.5 ng/mL)  percent inhibition of viability                  2.44
5  O=NN(CCCl)C(=O)NCCCl [Carmustine] (max concentration tested 10000 nM)  KHYG-1 (IL-2 2.5 ng/mL)  percent inhibition of viability                 -12.5
